B1: Serine/threonine-protein kinase A-Raf, residues 21 to 89; numbered along this chain, P10398 (parent)
chain: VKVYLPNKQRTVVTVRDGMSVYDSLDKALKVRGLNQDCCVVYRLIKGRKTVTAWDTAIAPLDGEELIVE

variants of: B1; assay: abundance fitness (aPCA) (normalised: wild type 0, dead -1); higher = more abundant; growth selection in yeast, the domain comes from the species named; details: Homo sapiens
Label rule, in plain words: abundance fitness of -0.3 and up is 1, under -0.3 is 0.

Worked cases, answers included:
[
  {
    "mutation_spec": "A28Y",
    "group_label": 1
  },
  {
    "mutation_spec": "S24W",
    "group_label": 0
  },
  {
    "mutation_spec": "C39V",
    "group_label": 1
  },
  {
    "mutation_spec": "G18F",
    "group_label": 0
  },
  {
    "mutation_spec": "T11V",
    "group_label": 1
  },
  {
    "mutation_spec": "L61V",
    "group_label": 1
  }
]

Given D23S , state whether its abundance fitness is at least -0.3.
1

Decide: is the reported value of abundance fitness for V41I equal to or greater than -0.3?
0

Does the reported abundance fitness for D23E fall at or above the -0.3 mark?
1

Hi, just wondering whether V51M shows abundance fitness of -0.3 or higher.
1

Tell me whether abundance fitness is at least -0.3 here: D55V
0

hey, is abundance fitness for this one >= -0.3? S20V
0

Does V40I have a reported abundance fitness of at least -0.3?
1

Reported abundance fitness reaches at least -0.3 for D23P ?
0

Assess whether reported abundance fitness for L61T sits at -0.3 or higher.
1

Check this variant for abundance fitness at or above -0.3: D37T
0

Assess whether reported abundance fitness for T50A sits at -0.3 or higher.
1

Could you verify whether the entry V12H shows abundance fitness of no less than -0.3?
1

This collection of values is drawn from the Human Domainome abundance scans (Beltran et al. 2025).
